System: T-47D breast
Test: NCI tumour cell line growth inhibition, 48 h
Reported log10(TGI) values for the following molecules.
# log10 transformed; quantity=TGI; unit=µM

# input # lookup: log10(TGI) of CCCCC[C@@H]1OCO[C@@]2(C)/C=C(C)/C=C/C(=O)O[C@H]([C@@H](C)[C@@H](O)[C@H](C)[C@@]3(O)C[C@@H](O[C@H]4C[C@@H](O)[C@H](O)[C@@H](C)O4)[C@H](C)[C@@H](C)O3)[C@@H](OC)/C=C/C=C(\C)C[C@@H]1[C@@H]2O (stereo in doubt)
# output 0.96

# input Same question for O=C1c2[nH]cc(CN3CCNCC3)c2C(=O)c2c1c(O)c1ccccc1c2O please.
# output 1.54

# input Same question for CN(C)C[C@H]1CC[C@@H](CN(C)C)C1=O please.
# output 1.37

# input Same question for Cc1cc(C)c(S(=O)(=O)N(CCCCN)OCCCN)c(C)c1 please.
# output 1.52

###

Tested on: OVCAR-5 ovarian
Test: NCI tumour cell line growth inhibition, 48 h
Observed Property: TGI (µM)
Your answer is read as µM, so omit the unit and give the number.

Below, each entry is followed by its recorded TGI result.
CC(=O)OCC1OC(OC2C(COC(C)=O)OC(OCCC[S-])C(OC(C)=O)C2OC(C)=O)C(OC(C)=O)C(OC(C)=O)C1OC(C)=O.[Au+].c1ccc(CN2[CH-]N(Cc3ccccc3)C(c3ccccc3)=C2c2ccccc2)cc1 (centres undefined)
27
O=C1c2ccccc2C(=O)c2c1ccc(C(Br)Br)c2[N+](=O)[O-]
4.4
COc1ccc(SC2c3cc(OC)c(OC)cc3Oc3nc(N)c(C#N)c(N)c32)cc1 (centres undefined)
3.39

# input for lookup
# input # lookup: TGI of O=C(/C=C/c1ccc(C(F)(F)F)cc1)c1ccc(Nc2nc(NCCO)nc(NCCO)n2)cc1
# output 14.1

###

System: HCC-2998 colon
Assay: NCI tumour cell line growth inhibition, 48 h
Reported log10(TGI) values for the following compounds.
# log10 transformed; quantity=TGI; unit=µM

CCN(CC)CCN1C(=O)c2c(c(C)c3c(oc4cc(O)ccc43)c2C)C1=O
0.48
CCSc1oc(-c2ccccc2)nc1[P+](c1ccccc1)(c1ccccc1)c1ccccc1
0.33
Cc1ccc2c(c1)C(=O)c1c-2n(CCCN)c(=O)c2cc([N+](=O)[O-])ccc12
0.07

# input I'm curious: which log10(TGI) was measured for CCN(CC)CCO/N=C1\CC[C@H]2[C@@H]3CC=C4C[C@@H](O)CC[C@]4(C)[C@H]3CC[C@]12C tested on HCC-2998 colon?
# output 1.50

# input Same question for O=C(O)/C=C(/CC(=O)O)C(=O)O please.
# output 1.96

###

Test system: MOLT-4 leukemia
Test: NCI tumour cell line growth inhibition, 48 h; in the data active = GI50 below about 0.43 µM; inactive = the rest
Would you mind answering with one of these outcomes? t = active, f = inactive

CC(=O)Oc1ccc(OC(C)=O)c2ccccc12
f
COc1cc(C)c(C(=O)O[C@H]2[C@H](O[C@H]3[C@@H](O)COC(O[C@H]4C[C@H]5[C@@H]6CC=C7C[C@@H](O)CC[C@]7(C)[C@H]6CC[C@]5(C)[C@H]4[C@H](C)C(=O)CCC(C)C)[C@@H]3OC(C)=O)OC[C@@H](O)[C@@H]2O)c(C)c1 (some centres undefined)
t
COc1ccc(-c2nn(-c3cccc(Cl)c3)cc2C=C(C#N)C#N)cc1
f

From here, focus on the item given below.
# input Tell me the assay call for N#Cc1c(NC(=O)c2ccccc2)sc2c1CCC(=O)C2 please.
# output f
